Biological target: SaCas9 (Staphylococcus aureus, UniProt J7RUA5)
Sequence (J7RUA5 1-1053): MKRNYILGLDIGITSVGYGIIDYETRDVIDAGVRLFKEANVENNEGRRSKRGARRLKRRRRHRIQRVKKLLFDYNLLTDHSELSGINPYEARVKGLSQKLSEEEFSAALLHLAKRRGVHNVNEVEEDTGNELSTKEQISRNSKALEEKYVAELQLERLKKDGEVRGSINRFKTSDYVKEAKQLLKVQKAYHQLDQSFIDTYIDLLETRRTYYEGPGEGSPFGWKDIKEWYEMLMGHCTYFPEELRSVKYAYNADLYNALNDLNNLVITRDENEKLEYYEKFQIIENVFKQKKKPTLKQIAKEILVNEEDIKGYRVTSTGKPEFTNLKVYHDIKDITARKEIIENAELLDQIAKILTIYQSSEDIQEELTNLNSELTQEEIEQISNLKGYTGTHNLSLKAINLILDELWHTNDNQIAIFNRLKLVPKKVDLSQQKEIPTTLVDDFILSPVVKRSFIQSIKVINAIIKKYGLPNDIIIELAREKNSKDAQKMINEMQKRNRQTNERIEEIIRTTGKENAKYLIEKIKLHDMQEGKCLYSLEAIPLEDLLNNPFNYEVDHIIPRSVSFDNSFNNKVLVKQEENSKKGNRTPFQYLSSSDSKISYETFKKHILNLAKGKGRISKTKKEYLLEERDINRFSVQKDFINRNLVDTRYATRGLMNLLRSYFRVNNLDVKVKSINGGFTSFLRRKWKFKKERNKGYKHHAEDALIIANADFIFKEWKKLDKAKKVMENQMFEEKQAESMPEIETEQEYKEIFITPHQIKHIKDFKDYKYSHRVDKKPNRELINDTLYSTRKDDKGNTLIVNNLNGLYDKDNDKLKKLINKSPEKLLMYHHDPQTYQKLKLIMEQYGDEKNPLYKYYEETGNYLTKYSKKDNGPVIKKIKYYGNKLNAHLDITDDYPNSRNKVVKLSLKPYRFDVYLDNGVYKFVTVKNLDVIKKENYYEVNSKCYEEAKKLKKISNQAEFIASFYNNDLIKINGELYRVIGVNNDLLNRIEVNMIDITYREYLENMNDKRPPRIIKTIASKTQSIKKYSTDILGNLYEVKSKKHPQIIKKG
Assay: Strand displacement assay, SaCas9 primary screen
Assay type: biochemical
Conditions: SaCas9 primary screen, Auto Zscore, replicate 2
Recorded measurements of Auto Zscore Rep 2, one per entry
reported.metric: Auto Zscore Rep 2

[[record]]
compound = "O=C(O)c1cc(NS(=O)(=O)N2CCOCC2)ccc1N1CCCC(CN2CCCC2)C1 (centres unmarked)"
target_or_system = "SaCas9 (Staphylococcus aureus, UniProt J7RUA5)"
reported_metric = "Auto Zscore Rep 2"
data_value = "−0.2997"

[[record]]
compound = "CCS(=O)(=O)Nc1cnc(N(C)CCCc2c(C)nn(C)c2C)c(C(=O)O)c1"
target_or_system = "SaCas9 (Staphylococcus aureus, UniProt J7RUA5)"
reported_metric = "Auto Zscore Rep 2"
data_value = 0.4148

[[record]]
compound = "O=C(O)c1cc(NS(=O)(=O)c2cc(F)ccc2F)cnc1N1CCC(N2CCCCC2)CC1"
target_or_system = "SaCas9 (Staphylococcus aureus, UniProt J7RUA5)"
reported_metric = "Auto Zscore Rep 2"
data_value = "−0.1846"

[[record]]
compound = "Cc1ccc(C)n1CCN1CCN(S(=O)(=O)c2ccccc2)CC1"
target_or_system = "SaCas9 (Staphylococcus aureus, UniProt J7RUA5)"
reported_metric = "Auto Zscore Rep 2"
data_value = "−0.9366"

[[record]]
compound = "Cc1cc(Nc2ccccc2)n(-c2ccccc2C(=O)O)n1"
target_or_system = "SaCas9 (Staphylococcus aureus, UniProt J7RUA5)"
reported_metric = "Auto Zscore Rep 2"
data_value = "−1.233"

[[record]]
compound = "O=c1oc2c(O)c(O)ccc2c2c1CCC2"
target_or_system = "SaCas9 (Staphylococcus aureus, UniProt J7RUA5)"
reported_metric = "Auto Zscore Rep 2"
data_value = "−0.8068"

[[record]]
compound = "CC1(C)CC(=O)C2=C(C1)Nc1onc(C(C)(C)C)c1C2c1ccc(O)c(O)c1 (centres unmarked)"
target_or_system = "SaCas9 (Staphylococcus aureus, UniProt J7RUA5)"
reported_metric = "Auto Zscore Rep 2"
data_value = 2.015

[[record]]
compound = "Cc1sc2c(c1C)CSC(C(=O)Nc1c(C)n(C)n(-c3ccccc3)c1=O)=C2"
target_or_system = "SaCas9 (Staphylococcus aureus, UniProt J7RUA5)"
reported_metric = "Auto Zscore Rep 2"
data_value = 0.492

